Reported Ki by item:
MEASURED_ON: BRD4 (BDI_K57-E168) (Homo sapiens)
Construct: BD1: amino acids K57-E168
ASSAY_SUMMARY: TR-FRET bromodomain binding assay, first bromodomain of BRD4
ASSAY_CONDITIONS: His-tagged BD1, 100 nM Alexa647 probe; TR-FRET protocol A-E given per row
The answer is to be given in nM; state only the numeric part.

Some entries whose results are on file:
{"COMPOUND": "Cn1cc(-c2cc(S(C)(=O)=O)ccc2OCC2CCOC2)c2cc[nH]c(=O)c21 (stereo not shown)", "Ki [nM]": 13}
{"COMPOUND": "Cn1cc(-c2cc(S(C)(=O)=O)ccc2OCC2(C)CC2)c2cc[nH]c(=O)c21", "Ki [nM]": 12}

What reported Ki corresponds to "Cn1cc(-c2cc(CN3CCC(N)CC3)ccc2Oc2ccc(F)cc2F)c2cc[nH]c(=O)c21" on BRD4 (BDI_K57-E168) (Homo sapiens)?
908

What reported Ki corresponds to "Cn1cc(-c2cc(CNCC3CC3)ccc2Oc2ccc(F)cc2F)c2cc[nH]c(=O)c21" on BRD4 (BDI_K57-E168) (Homo sapiens)?
776

What reported Ki corresponds to "CCS(=O)(=O)Nc1ccc(Oc2ccc(F)cc2F)c(-c2cn(C)c3c(=O)[nH]c(C4CCN(C(=O)C5CC5)CC4)cc23)c1" on BRD4 (BDI_K57-E168) (Homo sapiens)?
4.29

What reported Ki corresponds to "Cn1cc(-c2cc(NCc3ccc(Oc4ccccc4)cc3)ccc2Oc2ccc(F)cc2F)c2cc[nH]c(=O)c21" on BRD4 (BDI_K57-E168) (Homo sapiens)?
214

What reported Ki corresponds to "CCS(=O)(=O)Nc1ccc(Oc2ccc(F)cc2F)c(-c2cn(C)c3c(=O)[nH]c(C(=O)NCCN(C)C)cc23)c1" on BRD4 (BDI_K57-E168) (Homo sapiens)?
1.42

Measured values drawn from patent US9321764B2 for this set.
